Hey, just so you know, these numbers are from paper PMC9495676.

Overview of recorded MIC for various substances
Test system: S. aureus (NCTC 6538)
assay.explanation: MIC/MBC broth dilution assay
Assay type: cell-based, Staphylococcus aureus
condition.summary: broth dilution, Mueller–Hinton broth, 5 × 10^5 CFU/mL, 37 °C overnight, OD 550 nm, nine replicates from three independent experiments
Experimental: The minimal inhibitory concentration assay (MIC) and minimum bactericidal concentration assay (MBC) of the peptide were carried out using the broth dilution method. […] The concentration of microbes was detected by measuring OD values through the use of a UV spectrophotometer set to 550 nm. […] The 96-well plates were analysed at 550 nm using an ELISA plate reader (Biolise BioTek EL808, Winooski, VT, USA). […]
No end group written: not given here.

Worked set:
FLGIIGKLLSGLL-NH2 [VM-3G]
1 µM
FLKIIGKLLSGLL-NH2 [VM-3K]
1 µM
FLPIIGKLLSGLL-NH2 [VM]
4 µM

Here is the next item to consider.
Given the entry FLWIIGKLLSGLL-NH2 [VM-3W] , report its measured MIC.
1 µM
